tested on: NF54^G358S-1 parasites; test: P. falciparum proliferation assay (72 h, flow cytometry, SYBR Green I/MitoTracker); assay type: cell-based, Plasmodium falciparum; settings: Plasmodium falciparum, NF54, NF54G358S-1; 10% human serum; read-out: IC50 ± SEM
Quantity Measured: IC50 (µM)
State just the number; it will be interpreted in µM.

compound=C[C@H]1Cc2c([nH]c3cc(Cl)c(F)cc23)[C@@]2(N1)C(=O)Nc1ccc(Cl)cc12 readout_value=2.03

Please look at the following compound next.
Measured IC50 of N#Cc1cc(NC(=O)[C@H]2c3ccccc3C(=O)N(CC(F)(F)F)[C@@H]2c2cccnc2)ccc1F [(+)-SJ733] : 14
